Target: T1, O4
T1 chain: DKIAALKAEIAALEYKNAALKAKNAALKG
Experiment: two-hybrid library CCNG1;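 note: natural log of median RNA to DNA barcode read ratio; higher means stronger binding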
METRIC: interaction score

Reference set (9 entries):
DEIAALEAENAALEYKIAALKAENAALEG [O15]; -1.8
DKIAALKAKNAALKYEIAALEAKNAALKG [O16]; -1.89
DENAALEAEIAALEYENAALEAKIAALKG [O14]; -1.11
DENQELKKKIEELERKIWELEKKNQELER [4H1831-bH]; -1.48
DKIAALKAEIAALEYKNAALKAKNAALKG [O4]; -2.15
DENAALEAKNAALKYKIAALKAKIAALKG [O2]; -1.83
DKNAALKAKIAALKYKNAALKAEIAALEG [O13]; -2.24
DKIAALKAEIAALEYENAALEAENAALEG [O11]; 1.77
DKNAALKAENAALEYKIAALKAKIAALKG [O10]; -1.67

[I] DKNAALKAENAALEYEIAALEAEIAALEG [O1]
[II] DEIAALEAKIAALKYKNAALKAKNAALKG [O12]
[III] DEIAALEAKIAALKYENAALEAENAALEG [O3]
stdin: # rank_down: sort by interaction score, max first Response format: the labels, sorted as the prompt asks.
stdout: III, II, I
(III: 2.05, II: -1.08, I: -2.08)
